Test system: OVCAR-5
experimentSummary: NCI tumour cell line growth inhibition, 48 h
Calls of active or inactive are those of the source. Cut-off read from the data, not from the text of the source: active = GI50 up to about 1.1 µM and inactive = higher.
Reported GI50 values for the following compounds.

compound	experimentalEndpoint	measuredValue
Cc1cccc2ns[s+]c12	GI50	> 100 µM (inactive)
CCOC(=O)C(NC(=O)Nc1ccc(C)cc1)(OCC)C(F)(F)F (configuration not stated)	GI50	> 100 µM (inactive)
CCOP(=O)(OCC)/C(C#N)=C/c1cccn1C(C)C	GI50	> 100 µM (inactive)
O=C(CC1(O)C(=O)Nc2ccccc21)c1ccc(Cl)cc1Cl (configuration not stated)	GI50	> 100 µM (inactive)
O=C(CC1(O)C(=O)Nc2ccccc21)c1ccncc1 (configuration not stated)	GI50	> 100 µM (inactive)

What value of GI50 has been reported for the following compound? "COc1ccc2o/c(=N/c3ccccc3)c(C(N)=O)cc2c1" > 100 µM (inactive)

What value of GI50 has been reported for the following compound? "CCOC(=O)c1ccc(C)c(/N=N/N(C)C)c1" > 100 µM (inactive)

What value of GI50 has been reported for the following compound? "Cc1ccc(NC(=O)CC/C(CC(=O)C(C)(C)C)=N\NC(=O)C[n+]2ccccc2)cc1C" > 100 µM (inactive)

====

Tested on: SK-MEL-2
experimentSummary: NCI tumour cell line growth inhibition, 48 h
Activity calls are given as the source filed them. Rule as the data show it: active = GI50 up to about 1.1 µM and inactive = higher.
I would appreciate it if you answered using one of these outcomes: True for active, False for inactive

compound	cat
CC(C)NC(=O)OCc1c(CO)c2c(n1C)-c1ccccc1CC2	False
CN(C)c1ccc(/C=c2/c3ccccc3n3c2cc(/C=C/c2ccccc2)[n+]3C)cc1	True
COc1cc(-c2coc3c(OC)c(OC4OC(COC5OC(C)C(O)C(O)C5O)C(O)C(O)C4O)c(OC)c(O)c3c2=O)cc(C)c1O (centres undefined)	False
Cc1ccc(S(=O)(=O)NC(=N)N(C)N=O)cc1	False

How was "Oc1c(Cl)cc2cc1-c1cc(cc(Cl)c1O)CCc1c(cc(Cl)c(O)c1Cl)-c1cc(Cl)c(c(Cl)c1O)/C=C\2" classified in this test? False

How was CCOC(=O)C(C(CC(=O)OC)NC(=O)OCc1ccccc1)C1(C)OCCO1 (centres undefined) classified in this test? False

How was O=C(O)CC(NC(=O)/C(=C/c1ccccc1O)NC(=O)c1ccccc1)C(=O)O (centres undefined) classified in this test? False

How was "[N-]=[N+]=C(C(=O)OCC#CCOC(=O)C(=[N+]=[N-])S(=O)(=O)c1ccccc1)S(=O)(=O)c1ccccc1" classified in this test? False

How was "Oc1cc(-c2ccc3c(c2)OCO3)nc2cc3c(cc12)OCO3" classified in this test? False

====

System: HT-29
experimentSummary: NCI tumour cell line growth inhibition, 48 h
Calls of active or inactive are those of the source. Rule as the data show it: active = GI50 up to about 1.1 µM and inactive = higher.
Reported GI50 values for the following compounds.

Worked cases, answers included:
compound	targetOrSystem	GI50
COc1ccccc1NC(=O)CC(=O)n1nc(C)c(/N=N/c2ccccc2C(=O)O)c1C	HT-29	> 100 µM (inactive)
N=C(N)SCCON1C(=O)c2ccccc2C1=O	HT-29	> 100 µM (inactive)
c1ccc([P+](CCSCCSCC[P+](c2ccccc2)(c2ccccc2)c2ccccc2)(c2ccccc2)c2ccccc2)cc1	HT-29	> 100 µM (inactive)
COC(=O)C1=C(C[S+]([O-])c2ccc([N+](=O)[O-])cc2[N+](=O)[O-])C2C=CC1C2 (stereo not given)	HT-29	17.7 µM (inactive)

// moving on: another record for GI50
What value of GI50 has been reported for the following compound? "O=[N+]([O-])c1cc(C(F)(F)F)cc2n[se]nc12" 7.29 µM (inactive)

Values were extracted from ChEMBL document CHEMBL1201862.
